Property: Tm; scope: individual variants
B1: 3-isopropylmalate dehydrogenase, P50455 (parent)
chain: MGFTVALIQGDGIGPEIVSKSKRILAKINELYSLPIEYIEVEAGDRALARYGEALPKDSLKIIDKADIILKGPVGESAADVVVKLRQIYDMYANIRPAKSIPGIDTKYGNVDILIVRENTEDLYKGFEHIVSDGVAVGMKIITRFASERIAKVGLNFALRRRKKVTCVHKANVMRITDGLFAEACRSVLKGKVEYSEMYVDAAAANLVRNPQMFDVIVTENVYGDILSDEASQIAGSLGIAPSANIGDKKALFEPVHGAAFDIAGKNIGNPTAFLLSVSMMYERMYELSNDDRYIKASRALENAIYLVYKERKALTPDVGGNATTDDLINEIYNKLG

variants of: B1; conditions: Sulfurisphaera tokodaii (strain DSM 16993 / JCM 10545 / NBRC 100140 / 7); pH 7; Thermal; CD; Potassium phosphate 20 mM; structure 1WPW; whole UniProt chain shown
Please state the figure in °C; there is no need to write the unit.

Consider the reported Tm for these variants:
[[record]]
variant_name = "M91L I95L K152R G154A A259S F261P Y282L"
measured_property = "Tm"
assay_value = 96.4

[[record]]
variant_name = "A259S F261P"
measured_property = "Tm"
assay_value = 97.1


Request: Fill in the blank: the reported Tm of Y282L is ____.
Result: 94.7
